- testSystem: CDK2/CyclinE (Homo sapiens, UniProt P24941)
- assayOverview: CDK2/CyclinE Flashplate assay, 96-well format, biotinylated-Rb peptide substrate
Met if IC50 is below 0.1 µM. Not met if not; exact matches included in Not met.

Consider the following illustrative entries.
1. O=C(NCc1ccccn1)Nc1nc2cc(OS(=O)(=O)c3ccc(NCC4CCCO4)cc3)ccc2[nH]1 (stereo not drawn)
Met
2. COCCNC(=O)Nc1nc2cc(OS(=O)(=O)c3ccc(NC4CCCC4)cc3)ccc2[nH]1
Met
3. O=C(Nc1nc2cc(OS(=O)(=O)c3ccc(NC4CCCC4)cc3)ccc2[nH]1)NC1CCCC1
Not met

Query block: Field: below-cutoff. Rule: recorded IC50 strictly less than 0.1 µM. Subject: `O=C(Nc1cccc(F)c1)Nc1nc2cc(OS(=O)(=O)c3ccc(-n4ccnc4)cc3)ccc2[nH]1`
Result block: Not met

Query block: Entry to check: `O=C(NCCCN1CCCC1)Nc1nc2cc(OS(=O)(=O)c3ccc(NC4CCCC4)cc3)ccc2[nH]1`
Result block: Met

----------
- testSystem: CDK2/CyclinE (Homo sapiens)
- assayOverview: CDK2/CyclinE Flashplate assay, 96-well format, biotinylated-Rb peptide substrate
# pIC50 annotations
Scale note: pIC50 = -log10(concentration in M).

Please review the entries below; each comes with its answer.
1) CN(C)CC(=O)Nc1nc2cc(OS(=O)(=O)c3ccc(NC4CCCC4)cc3)ccc2[nH]1 [Example 29]
6.22
2) O=C(O)CNC(=O)Nc1nc2cc(OS(=O)(=O)c3ccc(NC4CCCC4)cc3)ccc2[nH]1 [Example 46]
7.22
3) CN(C)CCNC(=O)Nc1nc2cc(OS(=O)(=O)c3ccc(NC4CCCC4)cc3)ccc2[nH]1 [Example 44]
6.89
4) CCN(CC)CCNC(=O)Nc1nc2cc(OS(=O)(=O)c3ccc(NC4CCCC4)cc3)ccc2[nH]1 [Example 58-am]
7.10
5) O=C(NCCCO)Nc1nc2cc(OS(=O)(=O)c3ccc(NC4CCCC4)cc3)ccc2[nH]1 [Example 58-y]
8.00

Query block: What measured pIC50 is associated with O=C(NCCN1CCCCC1)Nc1nc2cc(OS(=O)(=O)c3ccc(NC4CCCC4)cc3)ccc2[nH]1 [Example 58-aj] on CDK2/CyclinE (Homo sapiens)?
Result block: 6.43

Query block: Next compound up: O=C(Nc1nc2cc(OS(=O)(=O)c3ccc(-n4ccnc4)cc3)ccc2[nH]1)NC1CCCC1 [Example 57-c]
Result block: 6.22

Query block: Would you mind doing O=C(NCCO)Nc1nc2cc(OS(=O)(=O)c3ccc(-n4ccnc4)cc3)ccc2[nH]1 [Example 57-e] as well?
Result block: 6.52

Query block: Let us now turn to COC(=O)Nc1nc2cc(OS(=O)(=O)c3ccc(-c4cc(C(F)(F)F)n(C)n4)s3)ccc2[nH]1 [Example 62-e]
Result block: 6.00

Query block: Same for COC(=O)CCCC(=O)Nc1nc2cc(OS(=O)(=O)c3ccc(NC4CCCC4)cc3)ccc2[nH]1 [Example 26]
Result block: 6.89

----------
- testSystem: CDK2/CyclinE (Homo sapiens)
- assayOverview: CDK2/CyclinE Flashplate assay, 96-well format, biotinylated-Rb peptide substrate
pIC50: −log10 of the molar value.
Tick fulfilled if pIC50 is 7 or greater. Tick not fulfilled if pIC50 is less than 7.

Query block: Has `CCNC(=O)Nc1nc2cc(OS(=O)(=O)c3ccc(NC4CCCC4)cc3)ccc2[nH]1` a recorded pIC50 greater than or equal to 7?
Result block: fulfilled

Query block: Now give it for `O=C(Nc1nc2cc(OS(=O)(=O)c3ccc(-n4ccnc4)cc3)ccc2[nH]1)N1CCC1` too.
Result block: not fulfilled

Query block: Then this molecule: `O=C(NCc1cccc(F)c1)Nc1nc2cc(OS(=O)(=O)c3ccc(NC4CCCC4)cc3)ccc2[nH]1`
Result block: fulfilled

Query block: Try this molecule next: `O=C(Nc1ccc(F)cc1)Nc1nc2cc(OS(=O)(=O)c3ccc(-n4ccnc4)cc3)ccc2[nH]1`
Result block: not fulfilled

Query block: Next record, please: `NC(=O)CNC(=O)Nc1nc2cc(OS(=O)(=O)c3ccc(NC4CCCC4)cc3)ccc2[nH]1`
Result block: fulfilled

----------
A collection of compounds and their measured pIC50
- testSystem: CDK2/CyclinE (Homo sapiens, UniProt P24941)
- assayOverview: CDK2/CyclinE Flashplate assay, 96-well format, biotinylated-Rb peptide substrate
pIC50 is defined as minus the log10 of a concentration measured in mol/L.

// worked examples, pIC50 included
1) COC(=O)Nc1nc2cc(OS(=O)(=O)c3ccc(N)cc3)ccc2[nH]1
5.74
2) O=C(Nc1nc2cc(OS(=O)(=O)c3ccc(NC4CCCC4)cc3)ccc2[nH]1)NC1CCC1
6.85
3) COC(=O)Nc1nc2cc(OS(=O)(=O)c3ccc(NC(C)C)cc3)ccc2[nH]1
6.10

Consider the additional compound presented here.
Query block: Give recorded pIC50 with CDK2/CyclinE (Homo sapiens, UniProt P24941) for the following compound: `CNC(=O)Nc1nc2cc(OS(=O)(=O)c3ccc(-n4ccnc4)cc3)ccc2[nH]1`
Result block: 6.05

----------
- testSystem: CDK2/CyclinE (Homo sapiens)
- assayOverview: CDK2/CyclinE Flashplate assay, 96-well format, biotinylated-Rb peptide substrate
- Assay type: biochemical
Recorded log10 of IC50 values for a group of compounds are listed next.
Note: values are log10 of IC50 expressed in nM.

1. NC(=O)CCNC(=O)Nc1nc2cc(OS(=O)(=O)c3ccc(NC4CCCC4)cc3)ccc2[nH]1
1.20

Query block: So what log10 of IC50 did `COc1ccc(Nc2nc3cc(OS(=O)(=O)c4ccc(NC5CCCC5)cc4)ccc3[nH]2)cc1OC` get with CDK2/CyclinE (Homo sapiens)?
Result block: 2.11

Query block: And then `O=C(Nc1ccccc1)Nc1nc2cc(OS(=O)(=O)c3ccc(-n4ccnc4)cc3)ccc2[nH]1` , what is it?
Result block: 2.38

Query block: One more compound: `COCCNc1ccc(S(=O)(=O)Oc2ccc3[nH]c(NC(=O)OC)nc3c2)cc1`
Result block: 2.70

Query block: What do you get for `Cc1cc(C)cc(Nc2nc3cc(OS(=O)(=O)c4ccc(NC5CCCC5)cc4)ccc3[nH]2)c1` ?
Result block: 2.90

Query block: Please give the result for `O=C(NCCN1CCCC1)Nc1nc2cc(OS(=O)(=O)c3ccc(NC4CCCC4)cc3)ccc2[nH]1` too.
Result block: 2.18

Query block: Consider next the compound `COC(=O)Nc1nc2cc(OS(=O)(=O)c3ccccc3OC(F)(F)F)ccc2[nH]1` in the same way.
Result block: 3.00

Query block: O=C(NCCNCCO)Nc1nc2cc(OS(=O)(=O)c3ccc(NCC4CCCO4)cc3)ccc2[nH]1 (centres unmarked) , same question.
Result block: 2.04

----------
- testSystem: CDK4/CyclinD1 (Homo sapiens, UniProt P11802)
- Sequence (P11802 whole entry, species assumed): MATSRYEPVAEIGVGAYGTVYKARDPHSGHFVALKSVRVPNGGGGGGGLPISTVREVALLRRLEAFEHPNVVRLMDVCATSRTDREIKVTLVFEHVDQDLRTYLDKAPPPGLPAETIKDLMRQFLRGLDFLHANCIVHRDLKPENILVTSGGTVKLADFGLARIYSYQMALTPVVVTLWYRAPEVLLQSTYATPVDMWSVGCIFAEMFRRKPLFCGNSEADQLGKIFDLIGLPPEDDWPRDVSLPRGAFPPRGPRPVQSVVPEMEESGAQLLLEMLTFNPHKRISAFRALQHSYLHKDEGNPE
- Sequence (P24385 whole entry partner, species assumed): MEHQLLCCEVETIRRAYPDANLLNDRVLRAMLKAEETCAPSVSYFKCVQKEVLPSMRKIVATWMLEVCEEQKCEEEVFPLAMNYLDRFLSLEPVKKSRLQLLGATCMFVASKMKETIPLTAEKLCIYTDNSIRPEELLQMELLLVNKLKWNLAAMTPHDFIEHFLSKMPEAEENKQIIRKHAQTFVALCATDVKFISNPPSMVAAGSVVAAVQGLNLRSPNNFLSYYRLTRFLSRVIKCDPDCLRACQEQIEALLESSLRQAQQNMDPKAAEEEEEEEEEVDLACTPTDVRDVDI
- assayOverview: CDK4/CyclinD1 Flashplate assay, 96-well format, biotinylated-Rb peptide substrate
- Type: biochemical
Hi, to clarify the labels: true covers inhibition at 10 µM from 80% upward, false covers anything below 80%.

These solved cases illustrate the format of a correct answer.
1. O=C(Nc1nc2cc(OS(=O)(=O)c3ccc(NC4CCCC4)cc3)ccc2[nH]1)NC1CCCC1
false
2. COC(=O)Nc1nc2ccc(OS(=O)(=O)c3ccc(OCCN4CCCCC4)cc3)cc2[nH]1
false
3. O=C(Nc1ccccc1)Nc1nc2cc(OS(=O)(=O)c3ccc(NC4CCCC4)cc3)ccc2[nH]1
true
4. O=C(NCCN1CCOCC1)Nc1nc2cc(OS(=O)(=O)c3ccc(NCc4ccccc4)cc3)ccc2[nH]1
true
5. O=C(NCc1ccccc1Cl)Nc1nc2cc(OS(=O)(=O)c3ccc(-n4ccnc4)cc3)ccc2[nH]1
false
6. O=C(Nc1ccc(F)cc1)Nc1nc2cc(OS(=O)(=O)c3ccc(-n4ccnc4)cc3)ccc2[nH]1
true

With those in mind, consider the next molecule.
Query block: State whether the measured inhibition at 10 µM reaches 80%, counting equality as reaching it, for `COC(=O)Nc1nc2ccc(OS(=O)(=O)c3ccc(NCC4CC4)cc3)cc2[nH]1`
Result block: true

----------
- testSystem: CDK4/CyclinD1 (Homo sapiens, UniProt P11802)
- assayOverview: CDK4/CyclinD1 Flashplate assay, 96-well format, biotinylated-Rb peptide substrate
assayEndpoint: IC50
Note to self: number, then unit, no commentary.

Some compounds with recorded IC50:
1) CCOc1ccc(S(=O)(=O)Oc2ccc3nc(NC(=O)OC)[nH]c3c2)cc1
1000 nM
2) CC(C)(C)OC(=O)NCC(=O)Nc1nc2cc(OS(=O)(=O)c3ccc(NC4CCCC4)cc3)ccc2[nH]1
600 nM

Query block: I'd like to know its IC50. The compound in question is `CCN(CC)CCNc1ccc(S(=O)(=O)Oc2ccc3[nH]c(NC(=O)OC)nc3c2)cc1`
Result block: 6300 nM

Query block: Try the compound `CC(C)(CO)CNc1ccc(S(=O)(=O)Oc2ccc3[nH]c(NC(=O)C4CC4)nc3c2)cc1`
Result block: 400 nM
